All values here come from patent US20260034111A1.

Molecular target: recombinant human sPLA2-V enzyme (Homo sapiens, UniProt P39877)
Construct: made in house; host or cells: E. coli
Test: sPLA2-V enzyme inhibition assay (thio-PC substrate, DTNB detection, absorbance 410 nm)
Format: biochemical
Settings: class symbols; read-out: sPLA2 Type V Inhibition (IC50; nM)
Description: Screening Compounds for Inhibition of sPLA2-X, sPLA2-V, and sPLA2-IIA Enzyme Activity These sPLA2 enzymes hydrolyze the sn-2 acyl chains of glycerophospholipids, resulting in the release of a free fatty acid and a lysophospholipid. […] This free sulfhydryl reacts with DTNB to produce the chromogenic product 5-nitro-2-thiobenzoic acid (TNB) which can be quantitated by absorbance at 410 nm. […] Procedure of Enzyme Inhibition for sPLA2-X • 1. […] Measure the absorbance of all wells at 410 nm. • 13. […]
Counter-ions that a name gives are not always drawn.
readout label: IC50

These solved cases illustrate the format of a correct answer.
CC(C)(CC(=O)O)c1cccc(-n2c(C(N)=O)cc3ccc(OC(F)(F)F)cc32)c1 [Compound 22]	1500 to 5000 nM
CNC(=O)c1cc2ccc(OC(F)(F)F)cc2n1-c1cccc(CCC(=O)O)c1 [Compound 14]	> 5000 nM
NC(=O)c1cc2ccc(OC(F)(F)F)cc2n1-c1cccc(CCC(=O)O)n1 [Compound 18]	1500 to 5000 nM

Here is another compound to look at.
// lookup IC50 | system=recombinant human sPLA2-V enzyme (Homo sapiens, UniProt P39877) | key= NCc1cccc(-n2c(C(N)=O)cc3ccc(OC(F)(F)F)cc32)n1 [Compound 27, TFA salt]
> 5000 nM

====

Molecular target: sPLA2-X protein (Homo sapiens, UniProt O15496)
Sequence (O15496 43-165): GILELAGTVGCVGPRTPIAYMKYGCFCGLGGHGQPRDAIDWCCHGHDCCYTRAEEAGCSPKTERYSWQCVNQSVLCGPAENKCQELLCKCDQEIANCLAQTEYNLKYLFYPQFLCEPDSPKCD
Experiment: sPLA2-X enzyme inhibition assay (thio-PC substrate, DTNB detection, absorbance 410 nm)
Type: biochemical
Parameters: made in house; host or cells: E. coli
Conditions: class symbols; read-out: sPLA2 Type X Inhibition (IC50; nM)
Property: IC50; scope: individual molecules

Some solved cases for reference:
NC(=O)c1cc2ccc(OC(F)(F)F)cc2n1-c1ccc2occ(CC(=O)O)c2c1	50 to 200 nM
NC(=O)c1oc2ccccc2c1-c1cccc(CCC(=O)O)c1	> 200 nM
NC(=O)c1cc2ccc(OC(F)(F)F)cc2n1-c1cccc(SCC(=O)O)n1	< 20 nM

Need IC50, item NC(=O)c1cc2ccc(OC(F)(F)F)cc2n1-c1ccc2c(c1)C(CC(=O)O)CO2 (single isomer, unassigned; (+)) [Compound 1a]
50 to 200 nM

====

Target: recombinant human sPLA2-IIA enzyme (Homo sapiens)
Construct: made in house; host or cells: E. coli
Sequence (P14555 21-144): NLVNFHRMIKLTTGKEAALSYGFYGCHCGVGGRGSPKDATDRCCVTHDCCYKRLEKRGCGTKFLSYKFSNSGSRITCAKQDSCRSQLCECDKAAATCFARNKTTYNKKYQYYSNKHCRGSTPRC
Assay: sPLA2-IIA enzyme inhibition assay (thio-PC substrate, DTNB detection, absorbance 410 nm)
Assay type: biochemical
Conditions: class symbols; read-out: sPLA2 Type IIa Inhibition (IC50; nM)
readout label: IC50

Worked examples follow.
NC(=O)c1cc2ccc(OC(F)(F)F)cc2n1-c1cccc(C2CC2C(=O)O)n1 (single isomer, unassigned) [Compound 28e]	< 200 nM
NC(=O)c1cc2ccc(OC(F)(F)F)cc2n1-c1cccc([C@H]2C[C@@H]2C(=O)O)n1 (relative stereo) [Compound 28a]	> 1000 nM
CC(C)(C)OC(=O)NC1(c2cccc(-n3c(C(N)=O)cc4ccc(OC(F)(F)F)cc43)n2)CCC1 [Compound 48]	> 1000 nM

Consider the record given below.
// IC50 lookup, key: C/C(=C\C(=O)O)c1cccc(-n2c(C(N)=O)cc3ccc(OC(F)(F)F)cc32)n1 [Compound 6]
> 1000 nM

====

Recorded IC50, one value per entry.
Molecular target: recombinant human sPLA2-V enzyme (Homo sapiens, UniProt P39877)
Construct: made in house; host or cells: E. coli
Test: sPLA2-V enzyme inhibition assay (thio-PC substrate, DTNB detection, absorbance 410 nm)
Type: biochemical
Conditions: class symbols; read-out: sPLA2 Type V Inhibition (IC50; nM)

Reference set (8 entries):
NC(=O)c1sc2ccc(OC(F)(F)F)cc2c1-c1cccc(CCC(=O)O)c1 [Compound 5]	1500 to 5000 nM
C/C(=C\C(=O)O)c1cccc(-n2c(C(N)=O)cc3ccc(OC(F)(F)F)cc32)n1 [Compound 6]	> 5000 nM
NC(=O)c1sc2ccc(OC(F)(F)F)cc2c1-c1cccc(C2CC2C(=O)O)n1 (racemic) [Compound 54]	> 5000 nM
NC(=O)c1cc2ccc(OC(F)(F)F)cc2n1-c1ccc2c(c1)C(CC(=O)O)CO2 (stereo not shown) [Compound 1]	> 5000 nM
NC(=O)c1cc2ccc(OC(F)(F)F)cc2n1-c1cccc([C@@H](N)CC(=O)O)c1 [Compound 40]	> 5000 nM
NC(=O)c1cc2ccc(OC(F)(F)F)cc2n1-c1cccc(C2CC2C(=O)O)n1 (single isomer, unassigned) [Compound 28d]	1500 to 5000 nM
CS(=O)(=O)OCC(F)(F)c1cccc(-n2c(C(N)=O)cc3ccc(OC(F)(F)F)cc32)c1 [Compound 47]	> 5000 nM
NC(=O)c1cc2ccc(OC(F)(F)F)cc2n1-c1cccc(SCC(=O)O)n1 [Compound 44]	> 5000 nM

Can you share its IC50? I mean this molecule: CC(C)(CC(=O)O)c1cccc(-n2c(C(N)=O)cc3ccc(OC(F)(F)F)cc32)n1 [Compound 62]
1500 to 5000 nM

So what's the measured IC50 for this one? NC(=O)c1oc2ccccc2c1-c1cccc(CCC(=O)O)c1 [Compound 25]
> 5000 nM

I have this molecule here, N[C@H](CC(=O)O)c1cccc(-n2c(C(=O)O)cc3ccc(OC(F)(F)F)cc32)c1 [Compound 43] , and I need its recorded IC50.
> 5000 nM

Entry NC(=O)c1cc2ccc(OC(F)(F)F)cc2n1-c1ccc2occ(CC(=O)O)c2c1 [Compound 12] has what IC50?
> 5000 nM

Returns the measured IC50 for the input molecule. Input: NC(=O)c1cc2ccc(OC(F)(F)F)cc2n1-c1ccc2c(c1)C(CC(=O)O)CO2 (single isomer, unassigned; (+)) [Compound 1a]
> 5000 nM

Fill in: IC50 of NC(=O)c1cc2ccc(OC(F)(F)F)cc2n1-c1cccc(C(F)(F)CO)c1 [Compound 46] is ___
> 5000 nM

I'd like to know its IC50. The molecule in question is NC(=O)c1cc2ccc(OC(F)(F)F)cc2n1-c1cccc(C2CC2C(=O)O)n1 (racemic) [Compound 28]
> 5000 nM

Can you look up the measured IC50 of NC(=O)c1oc2ccc(OC(F)(F)F)cc2c1-c1cccc(CCC(=O)O)c1 [Compound 17] for me?
> 5000 nM

====

Molecular target: recombinant human sPLA2-V enzyme (Homo sapiens)
Construct: made in house; host or cells: E. coli
Experiment: sPLA2-V enzyme inhibition assay (thio-PC substrate, DTNB detection, absorbance 410 nm)
Format: biochemical
Details: sPLA2 Type V Inhibition (IC50; nM), class symbols
readout label: IC50

NC(=O)c1[se]c2ccc(OC(F)(F)F)cc2c1-c1cccc(C2CC2C(=O)O)n1 (racemic) [Compound 55]	> 5000 nM

Okay, now this molecule:
Lab note: need IC50 for NC(=O)c1[se]c2ccc(OC(F)(F)F)cc2c1-c1cccc(C2CC2C(=O)O)n1 (centres unmarked) [Compound 57] on recombinant human sPLA2-V enzyme (Homo sapiens), anyone have it?
> 5000 nM

====

Target: recombinant human sPLA2-V enzyme (Homo sapiens, UniProt P39877)
Construct: made in house; host or cells: E. coli
Sequence (P39877 21-138): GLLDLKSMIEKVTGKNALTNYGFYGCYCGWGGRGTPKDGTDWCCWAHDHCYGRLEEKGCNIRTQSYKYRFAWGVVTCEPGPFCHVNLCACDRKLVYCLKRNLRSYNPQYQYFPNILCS
Test: sPLA2-V enzyme inhibition assay (thio-PC substrate, DTNB detection, absorbance 410 nm)
Format: biochemical
Conditions: numeric value, control; read-out: sPLA2 Type V Inhibition (IC50; nM)
readout label: IC50
Could you give the number and then its unit, please?

What value of IC50 has been reported for the following molecule? CCc1c(C(=O)C(N)=O)c2c(OCC(=O)O)cccc2n1Cc1ccccc1 [LY315920, Varespladib, reference compound]
124 nM

====

Target: sPLA2-X protein (Homo sapiens, UniProt O15496)
Experiment: sPLA2-X enzyme inhibition assay (thio-PC substrate, DTNB detection, absorbance 410 nm)
Format: biochemical
Parameters: made in house; host or cells: E. coli
Conditions: class symbols; read-out: sPLA2 Type X Inhibition (IC50; nM)
Counter-ions that a name gives are not always drawn.
readout label: IC50

Solved cases below.
N[C@H](CC(=O)O)c1cccc(-n2c(C(=O)O)cc3ccc(OC(F)(F)F)cc32)c1	> 200 nM
C[C@@]1(c2cccc(-n3c(C(N)=O)cc4ccc(OC(F)(F)F)cc43)c2)C[C@H]1C(=O)O (relative stereo) [Compound 38b]	20 to 50 nM
NC(=O)c1cc2ccc(OC(F)(F)F)cc2n1-c1cccc(N2CC[C@H]2C(=O)O)n1	> 200 nM
NC(=O)c1cc2ccc(OC(F)(F)F)cc2n1-c1cccc(C2(CC(=O)O)CCC2)c1	< 20 nM
NC(=O)c1cc2ccc(OC(F)(F)F)cc2n1-c1cccc(C[C@H](N)C(=O)O)c1 [Compound 24, TFA salt]	> 200 nM

GET /values?readout=IC50&item= NC(=O)c1cc2ccc(OC(F)(F)F)cc2n1-c1cccc(C2CC2C(=O)O)c1 (racemic) [Compound 15]
20 to 50 nM

Using the record for `NC(=O)c1cc2ccc(OC(F)(F)F)cc2n1-c1cncc(CCC(=O)O)c1` , report its IC50.
50 to 200 nM

Entry under review: `NC(=O)c1cc2ccc(OC(F)(F)F)cc2n1-c1cccc([C@H](N)CC(=O)O)c1` . Reported IC50?
> 200 nM

Requested field: IC50. Item: `NC(=O)c1cc2ccc(OC(F)(F)F)cc2n1-c1cccc(CC2(C(=O)O)CCC2)c1`
20 to 50 nM
